Tested on: T1, human ORL-1 receptor (opioid receptor like 1) (human, UniProt P41146 1-370)
T1 construct: whole, on cells; Assays were run on membranes of CHO cells transfected with human ORL-1; also called opiate receptor like 1; nociceptin receptor
T1 sequence (P41146 whole entry): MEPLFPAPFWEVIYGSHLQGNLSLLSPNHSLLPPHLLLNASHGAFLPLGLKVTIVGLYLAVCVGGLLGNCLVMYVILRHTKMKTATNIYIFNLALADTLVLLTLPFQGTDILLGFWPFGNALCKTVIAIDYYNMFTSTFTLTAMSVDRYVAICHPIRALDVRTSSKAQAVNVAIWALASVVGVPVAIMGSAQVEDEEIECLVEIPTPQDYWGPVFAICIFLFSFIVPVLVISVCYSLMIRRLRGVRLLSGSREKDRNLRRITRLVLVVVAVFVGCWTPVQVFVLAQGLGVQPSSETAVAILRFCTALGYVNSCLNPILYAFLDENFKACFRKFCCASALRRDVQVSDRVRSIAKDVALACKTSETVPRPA
Assay text: [3H]nociceptin displacement, membranes of CHO cells transfected with human ORL-1; Ki=IC50/(1+L/Kd)
Numbered stars: 1 amine (or outer) side, 2 acyl side, 3 side chain; on linkers, the order of the positions; unused ones are H or OH. Square brackets hold non-standard residues; d marks the D form. Tyr(BN,3-Cl) = tyrosine with benzyl (BN) and 3-Cl, O=C([C@H](Cc1ccc(OCc2ccccc2)c(Cl)c1)N[*:1])[*:2]; Phe(4-CH2SO3H) = N[C@@H](Cc1ccc(CS(=O)(=O)O)cc1)C(=O)O; Phe(4-NO2) = N[C@@H](Cc1ccc([N+](=O)[O-])cc1)C(=O)O; Phe(4-COOH) = N[C@@H](Cc1ccc(C(=O)O)cc1)C(=O)O; Phe(4-F) = N[C@@H](Cc1ccc(F)cc1)C(=O)O; Phe(4-Me) = Cc1ccc(C[C@H](N)C(=O)O)cc1; Phg = N[C@H](C(=O)O)c1ccccc1; Ahx = NCCCCCC(=O)O
# 1.0 = Ki below 30 nM (exclusive); 0.0 = Ki at/above 30 nM

Previously resolved entries follow.
Prompt: Regarding Ac-RY[Phe(4-F)]RWR-NH2 (SMILES CC(=O)N[C@@H](CCCNC(=N)N)C(=O)N[C@@H](Cc1ccc(O)cc1)C(=O)N[C@@H](Cc1ccc(F)cc1)C(=O)N[C@@H](CCCNC(=N)N)C(=O)N[C@@H](Cc1c[nH]c2ccccc12)C(=O)N[C@@H](CCCNC(=N)N)C(N)=O, also called Ac-Arg-Tyr-Phe(4-F)-Arg-Trp-Arg-NH2) [VII-61-B] , kindly confirm whether its Ki is beneath 30 nM.
Response: 1.0

Prompt: Regarding Ac-RY[Phe(4-CH2SO3H)]RWR-NH2 (SMILES CC(=O)N[C@@H](CCCNC(=N)N)C(=O)N[C@@H](Cc1ccc(O)cc1)C(=O)N[C@@H](Cc1ccc(CS(=O)(=O)O)cc1)C(=O)N[C@@H](CCCNC(=N)N)C(=O)N[C@@H](Cc1c[nH]c2ccccc12)C(=O)N[C@@H](CCCNC(=N)N)C(N)=O, also called Ac-Arg-Tyr-Phe(4-CH2SO3H)-Arg-Trp-Arg-NH2) [VII-75-B] , kindly confirm whether its Ki is beneath 30 nM.
Response: 1.0

Prompt: Regarding Ac-RYYRW[Ahx]-NH2 (SMILES CC(=O)N[C@@H](CCCNC(=N)N)C(=O)N[C@@H](Cc1ccc(O)cc1)C(=O)N[C@@H](Cc1ccc(O)cc1)C(=O)N[C@@H](CCCNC(=N)N)C(=O)N[C@@H](Cc1c[nH]c2ccccc12)C(=O)NCCCCCC(N)=O, also called Ac-Arg-Tyr-Tyr-Arg-Trp-ε-aminocaproyl-NH2) [VII-57-C] , kindly confirm whether its Ki is beneath 30 nM.
Response: 0.0

Prompt: Regarding Ac-RY[Phg]RWR-NH2 (SMILES CC(=O)N[C@@H](CCCNC(=N)N)C(=O)N[C@@H](Cc1ccc(O)cc1)C(=O)N[C@H](C(=O)N[C@@H](CCCNC(=N)N)C(=O)N[C@@H](Cc1c[nH]c2ccccc12)C(=O)N[C@@H](CCCNC(=N)N)C(N)=O)c1ccccc1, also called Ac-Arg-Tyr-Phg-Arg-Trp-Arg-NH2) [VII-13-B] , kindly confirm whether its Ki is beneath 30 nM.
Response: 1.0

***
Prompt: Regarding Ac-R[Phe(4-NO2)]YRWR-NH2 (SMILES CC(=O)N[C@@H](CCCNC(=N)N)C(=O)N[C@@H](Cc1ccc([N+](=O)[O-])cc1)C(=O)N[C@@H](Cc1ccc(O)cc1)C(=O)N[C@@H](CCCNC(=N)N)C(=O)N[C@@H](Cc1c[nH]c2ccccc12)C(=O)N[C@@H](CCCNC(=N)N)C(N)=O, also called Ac-Arg-Phe(NO2)-Tyr-Arg-Trp-Arg-NH2) [VII-23-B] , kindly confirm whether its Ki is beneath 30 nM.
Response: 1.0

Prompt: Regarding Ac-R[Phe(4-Me)]YRWR-NH2 (SMILES CC(=O)N[C@@H](CCCNC(=N)N)C(=O)N[C@@H](Cc1ccc(C)cc1)C(=O)N[C@@H](Cc1ccc(O)cc1)C(=O)N[C@@H](CCCNC(=N)N)C(=O)N[C@@H](Cc1c[nH]c2ccccc12)C(=O)N[C@@H](CCCNC(=N)N)C(N)=O, also called Ac-Arg-Phe(4-Me)-Tyr-Arg-Trp-Arg-NH2) [VII-15-B] , kindly confirm whether its Ki is beneath 30 nM.
Response: 1.0

Prompt: Regarding Ac-R[Tyr(BN,3-Cl)]YRWR-NH2 (also called Ac-Arg-Tyr(BN*, 3-Cl)-Tyr-Arg-Trp-Arg-NH2) [VII-39-D] , kindly confirm whether its Ki is beneath 30 nM.
Response: 1.0

Prompt: Regarding Ac-R[Phe(4-COOH)]YRWR-NH2 (SMILES CC(=O)N[C@@H](CCCNC(=N)N)C(=O)N[C@@H](Cc1ccc(C(=O)O)cc1)C(=O)N[C@@H](Cc1ccc(O)cc1)C(=O)N[C@@H](CCCNC(=N)N)C(=O)N[C@@H](Cc1c[nH]c2ccccc12)C(=O)N[C@@H](CCCNC(=N)N)C(N)=O, also called Ac-Arg-Phe(4-COOH)-Tyr-Arg-Trp-Arg-NH2) [VII-19-B] , kindly confirm whether its Ki is beneath 30 nM.
Response: 0.0
